Molecular target: T1, human chemokine (C-C motif) receptor 8 (CCR8) protein (human, UniProt P51685 1-355)
T1 construct: whole, on cells; also called human CCR8
Assay: cell binding, CCR8-expressing U2OS cells, curve fit
experimental_endpoint: Span

137-H2L3 (antibody, V domains shown, Humanized 137D1H10) VH: EVQLVESGGGLVQPGGSLKLSCAASGFTFNTYAMNWVRQASGKGLEWVGRIRSKANNYATYYADSVKDRFTISRDDSKNTAYLQMNNLKTEDTAVYYCVRDRSRGEDYAMDYWGQGTLVTVSS VL: DIVMTQSPLSLPVTPGEPVSISCRSSKSLLHSNANTYLYWFLQKPGQSPQLLIYRMSNLASGVPDRFSGSGSGTAFTLKISRVEAEDVGVYYCMQHLEYPFTFGQGTKLEIK ... 25900
